Data origin: ChEMBL document CHEMBL4342426

Each entry below carries its recorded Papp.
Test: in vitro
Details: PAMPA
Description: Effective permeability of compound by PAMPA assay
Note: unit ×10⁻⁶ cm/s is implicit; provide only the numeric part.

Nc1cc(C2CCCN(C(=O)c3cc(C(F)(F)F)no3)C2)[nH]n1 (stereo unspecified) = 3.76
O=C(c1ccc(F)cc1)N1CCCC(c2cc3ncccc3[nH]2)C1 (stereo unspecified) = 0.625
CC(C)(O)c1cc(C(=O)N2CCCC(c3cc4ncccc4[nH]3)C2)on1 (stereo unspecified) = 0.45
O=C(c1ccc(F)cc1)N1CCCC(c2cc3ncc(Cl)cc3[nH]2)C1 (stereo unspecified) = 10.6
CN(C(=O)c1ccccc1)c1cccc(-c2cc3ncccc3[nH]2)c1 = 2.78

Using the record for Cc1ccoc1C(=O)N1CCCC(c2cc3ncccc3[nH]2)C1 (stereo unspecified) , report its Papp.
3.09

Query Nc1cc(C2CCCN(C(=O)c3ccccc3)C2)[nH]n1 (stereo unspecified) next
1.42

Query O=C(c1ccccc1)N1CCCC(c2cc3ncccn3n2)C1 (stereo unspecified) next
16.5
